Test: Pharmacokinetics of intraperitoneal or intravenous injection in CD1 mice (plasma, LC/MS/MS)
Assay type: in vivo
Settings: male, CD1, mouse, plasma, ip, 10 mg/kg, IP 10 mg/kg, 1 h, read-out: Conc. Mouse 1
assay metric: concentration at 1 h

Fill in: concentration at 1 h of COc1cc2c(Oc3ccc(NC(=O)C4(C(=O)Nc5ccc(F)cc5)CC4)cc3F)ccnc2cc1OCCCOCCCOCCC(=O)N[C@H](C(=O)N1C[C@H](O)C[C@H]1C(=O)NCc1ccc(-c2scnc2C)cc1)C(C)(C)C is ___
4470 ng/mL

---

Assay: Pharmacokinetics of intraperitoneal or intravenous injection in CD1 mice (plasma, LC/MS/MS)
Assay type: in vivo
Details: male, CD1, mouse, plasma, ip, 10 mg/kg, IP 10 mg/kg, 24 h, read-out: Conc. Mean
assay metric: concentration at 24 h (µg/mL)
Please state the figure in µg/mL; there is no need to write the unit.

# query: concentration at 24 h of entry COc1cc2c(Oc3ccc(NC(=O)C4(C(=O)Nc5ccc(F)cc5)CC4)cc3F)ccnc2cc1OCCCOCCCOCCC(=O)N[C@H](C(=O)N1C[C@H](O)C[C@H]1C(=O)NCc1ccc(-c2scnc2C)cc1)C(C)(C)C
0.0123
